- TEST_DETAILS: Solubility in water of the active ingredients
- Type: physicochemical
- CONDITION_NOTES: water
REPORTED_METRIC: solubility (µg/mL)

compound="CCC(C)OC(=N\\OC)/C(C)=N/OCc1ccccc1/C(=N\\OC)C(=O)NC (stereo not drawn) [Compound 2]" reported_metric=solubility observed_measurement=1190

[I] CNC(=O)/C(=N/OC)c1ccccc1CO/N=C(C)/C(=N/OC)OCC(C)C [Compound 3]
[II] CNC(=O)/C(=N/OC)c1ccccc1CO/N=C(C)/C(=N/OC)OC(C)C [Compound 1]
Q: Between I and II , whose recorded solubility is greater? Answer with the label corresponding to your selection.
Ans: II
(II: 1340 µg/mL, I: 500 µg/mL)
